Target: E3 ubiquitin-protein ligase Mdm2 (Homo sapiens)
Experiment: Displacement of carboxyfluorescein-labeled LTFEHYWAQLTS-FAM from human MDM2 (16 to 116) expressed in Escherichia coli C41 at 0.005 to 1 mM by fluorescence anisotropic analysis
Calls of active or inactive are those of the source. The calls are words filed in the database; no cut-off is given here.
quantity-kind: inhibition

Here is how some compounds turned out for inhibition.
compound	recorded-value
CC(C)(C)C1=NN(c2ccc(Cl)cc2)C(c2ccc(Cl)c(Cl)c2)C1 (stereo unspecified)	Active
CC(C)(C)C1=NN(c2ccc(Cl)cc2)C(c2ccc3ccccc3c2)C1 (stereo unspecified)	Active
COc1ccccc1C1=NN(c2ccccc2Cl)C(c2cccc(Cl)c2)C1 (stereo unspecified)	inactive
CCOc1ccccc1C1=NN(c2ccc(Cl)cc2)C(c2ccc(Cl)cc2)C1C(=O)N1CCOCC1 (stereo unspecified)	inactive
CC(C)(C)C1=NN(c2ccc(Br)cc2)C(c2ccc(Cl)cc2)C1 (stereo unspecified)	Active
CC(C)(C)C1=NN(c2ccc(Cl)cc2)C(c2ccc(Cl)cc2)C1C(=O)N1CCOCC1 (stereo unspecified)	Active

Bench note: what inhibition did COc1ccc(C2=NN(c3ccccc3Cl)C(c3cccc(Cl)c3)C2)cc1 (stereo unspecified) show?
inactive

I have this compound here, COc1cccc(C2=NN(c3ccccc3Cl)C(c3ccccc3Cl)C2)c1 (stereo unspecified) , and I need its recorded inhibition.
inactive

Sample COc1ccccc1C1=NN(c2cccc(Cl)c2)C(c2cccc(Cl)c2)C1 (stereo unspecified) — what was its inhibition?
inactive

Any idea what inhibition was measured for COc1cccc(C2=NN(c3ccc(Cl)cc3)C(c3cccc(Cl)c3)C2)c1 (stereo unspecified) ?
inactive

Name the reported inhibition value associated with the compound CC(C)(C)C1=NN(c2ccc(Cl)cc2)C(c2ccc(Cl)cc2)C1 (stereo unspecified)
Active

----------
Test: Ratio of IC50 for human H1299 cells to IC50 for human HCT116 cells
Settings: H1299 cells and HCT116 cells
quantity-kind: selectivity ratio
Give the figure by itself; no unit, no explanation.

I'd like to know its selectivity ratio. The molecule in question is COc1ccc(C2=N[C@@H](c3ccc(Cl)cc3)[C@@H](c3ccc(Cl)cc3)N2C(=O)N2CCNC(=O)C2)c(OC(C)C)c1
9

----------
Target: E3 ubiquitin-protein ligase Mdm2 (Homo sapiens) (UniProt Q00987)
Sequence (Q00987 whole entry, looked up): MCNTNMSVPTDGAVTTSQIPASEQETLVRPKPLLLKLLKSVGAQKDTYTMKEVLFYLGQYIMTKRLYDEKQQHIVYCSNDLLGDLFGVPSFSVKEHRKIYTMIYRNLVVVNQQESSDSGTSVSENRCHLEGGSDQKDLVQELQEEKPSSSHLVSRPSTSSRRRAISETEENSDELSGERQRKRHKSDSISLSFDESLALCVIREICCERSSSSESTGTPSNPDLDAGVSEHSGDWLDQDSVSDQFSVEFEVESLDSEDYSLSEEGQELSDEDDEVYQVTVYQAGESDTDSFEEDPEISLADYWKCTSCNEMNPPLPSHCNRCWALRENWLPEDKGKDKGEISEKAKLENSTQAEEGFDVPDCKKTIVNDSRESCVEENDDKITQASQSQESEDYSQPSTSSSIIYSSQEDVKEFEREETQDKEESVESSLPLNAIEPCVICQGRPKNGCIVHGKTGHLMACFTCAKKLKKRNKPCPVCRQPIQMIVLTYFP
Test: Displacement of carboxyfluorescein-labeled LTFEHYWAQLTS-FAM from MDM2 (unknown origin) (2 to 125) at 0.005 to 1 mM by fluorescence anisotropic analysis
The source made the active and inactive calls. The calls are words filed in the database; no cut-off is given here.
Respond only with the outcome that fits, drawn from True = active, False = inactive

Recorded test outcome, item COc1ccccc1C1=NN(c2ccccc2Cl)C(c2cccc(Cl)c2)C1 (stereo unspecified)
False

Fill in: this test's call for CC(C)(C)C1=NN(c2ccc(Cl)cc2)C(c2ccc(Cl)c(Cl)c2)C1 (stereo unspecified) is ___
True

Per the assay record, what outcome was assigned to COc1ccc(C2=NN(c3ccccc3Cl)C(c3cccc(Cl)c3)C2)cc1 (stereo unspecified) ?
False

What is the recorded call for this compound in the test? CC(C)(C)C1=NN(c2ccc(Cl)cc2)C(c2ccc(Cl)cc2)C1 (stereo unspecified)
True

How did this test come out for COc1cccc(C2=NN(c3ccc(Cl)cc3)C(c3cccc(Cl)c3)C2)c1 (stereo unspecified) ?
False

For COc1ccccc1C1=NN(c2cccc(Cl)c2)C(c2cccc(Cl)c2)C1 (stereo unspecified) , what call appears in the results of this test?
False

Recorded test call requested for CC(C)(C)C1=NN(c2ccc(Cl)cc2)C(c2ccc3ccccc3c2)C1 (stereo unspecified)
True

Can you look up the reported call for CCOc1ccccc1C1=NN(c2ccc(Cl)cc2)C(c2ccc(Cl)cc2)C1C(=O)N1CCOCC1 (stereo unspecified) for me?
False

Hello, I am checking results. What call was entered for COc1cccc(C2=NN(c3ccccc3Cl)C(c3ccccc3Cl)C2)c1 (stereo unspecified) ?
False

Please let me know the test result on file for CC(C)(C)C1=NN(c2ccc(Cl)cc2)C(c2ccc(Cl)cc2)C1C(=O)N1CCOCC1 (stereo unspecified) .
True

// return assay outcome for CC(C)(C)C1=NN(c2ccc(Br)cc2)C(c2ccc(Cl)cc2)C1 (stereo unspecified)
True

----------
System: HCT-116
Experiment: Cytotoxicity against human HCT116 cells after 72 hrs by CellTiterGlo luciferase-based assay
Assay type: functional, cell-based
Conditions: HCT-116, 72 h
quantity-kind: pIC50
Reminder that pIC50 is minus the log10 of a molar concentration.

Look up pIC50: CC(C)(C)C1=NN(c2ccc(Cl)cc2)C(c2ccc(Cl)cc2)C1 (configuration not stated)
4.76

I would be grateful if you could share the reported pIC50 for CC(C)(C)C1=NN(c2ccc(Cl)cc2)C(c2ccc(Cl)c(Cl)c2)C1 (configuration not stated) .
5.28

Quick one: pIC50 for COc1ccccc1C1=NN(c2ccccc2Cl)C(c2cccc(Cl)c2)C1 (configuration not stated) ?
5.72

Entry CC(C)(C)C1=NN(c2ccc(Br)cc2)C(c2ccc(Cl)cc2)C1 (configuration not stated) : reported pIC50 = ?
5.37

What pIC50 value was documented for this compound, CCOc1ccccc1C1=NN(c2ccc(Cl)cc2)C(c2ccc(Cl)cc2)C1C(=O)N1CCOCC1 (configuration not stated) ?
5.10

Endpoint output: pIC50 of COc1ccccc1C1=NN(c2cccc(Cl)c2)C(c2cccc(Cl)c2)C1 (configuration not stated) . Value?
5.80

Reported pIC50 for CC(C)(C)C1=NN(c2ccc(Cl)cc2)C(c2ccc(Cl)cc2)C1C(=O)N1CCOCC1 (configuration not stated) : what is it?
5.46

Returns the measured pIC50 for the input compound. Input: CC(C)(C)C1=NN(c2ccc(Cl)cc2)C(c2ccc3ccccc3c2)C1 (configuration not stated)
4.90

Suppose we examine the compound COc1ccc(C2=N[C@@H](c3ccc(Cl)cc3)[C@@H](c3ccc(Cl)cc3)N2C(=O)N2CCNC(=O)C2)c(OC(C)C)c1 ; what pIC50 value has been reported?
5.80

Please give the measured pIC50 for this compound: COc1cccc(C2=NN(c3ccccc3Cl)C(c3ccccc3Cl)C2)c1 (configuration not stated)
5.60

Give the measured pIC50 of COc1cccc(C2=NN(c3ccc(Cl)cc3)C(c3cccc(Cl)c3)C2)c1 (configuration not stated) .
4.73

Would you mind telling me what pIC50 value was observed for COc1ccc(C2=NN(c3ccccc3Cl)C(c3cccc(Cl)c3)C2)cc1 (configuration not stated) ?
5.82

----------
Provide the recorded pIC50 for the entries that follow.
Assay: Cytotoxicity against human H1299 cells after 72 hrs by CellTiterGlo luciferase-based assay
Format: functional, cell-based
Conditions: NCI-H1299, 72 h
Notebook: values listed as pIC50 are -log10 of the concentration (mol/L).

Name the reported pIC50 value associated with the compound COc1ccc(C2=NN(c3ccccc3Cl)C(c3cccc(Cl)c3)C2)cc1 (stereo not given)
5.14

Report pIC50 for COc1ccccc1C1=NN(c2ccccc2Cl)C(c2cccc(Cl)c2)C1 (stereo not given) please.
4.87

Would you mind telling me what pIC50 value was observed for CC(C)(C)C1=NN(c2ccc(Cl)cc2)C(c2ccc(Cl)cc2)C1 (stereo not given) ?
4.71

Could you share which pIC50 value was measured for CC(C)(C)C1=NN(c2ccc(Br)cc2)C(c2ccc(Cl)cc2)C1 (stereo not given) ?
4.71

What measured pIC50 goes with COc1cccc(C2=NN(c3ccccc3Cl)C(c3ccccc3Cl)C2)c1 (stereo not given) ?
4.87

I am curious: what pIC50 value has been reported for CC(C)(C)C1=NN(c2ccc(Cl)cc2)C(c2ccc(Cl)cc2)C1C(=O)N1CCOCC1 (stereo not given) ?
4.85

For CC(C)(C)C1=NN(c2ccc(Cl)cc2)C(c2ccc(Cl)c(Cl)c2)C1 (stereo not given) , what is its reported pIC50?
4.83

Any idea what its pIC50 is? The compound is CCOc1ccccc1C1=NN(c2ccc(Cl)cc2)C(c2ccc(Cl)cc2)C1C(=O)N1CCOCC1 (stereo not given)
5.08

For the compound shown here, COc1ccccc1C1=NN(c2cccc(Cl)c2)C(c2cccc(Cl)c2)C1 (stereo not given) , give the reported pIC50.
4.93

What does the record list as pIC50 for COc1ccc(C2=N[C@@H](c3ccc(Cl)cc3)[C@@H](c3ccc(Cl)cc3)N2C(=O)N2CCNC(=O)C2)c(OC(C)C)c1 ?
4.83

The reported measurements were obtained from ChEMBL document CHEMBL3091353.
